Test system: SpTbr T-box DNA-binding domain (GST fusion);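 also: protein at 200 nM in PBS on universal double-stranded arrays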
Sequence: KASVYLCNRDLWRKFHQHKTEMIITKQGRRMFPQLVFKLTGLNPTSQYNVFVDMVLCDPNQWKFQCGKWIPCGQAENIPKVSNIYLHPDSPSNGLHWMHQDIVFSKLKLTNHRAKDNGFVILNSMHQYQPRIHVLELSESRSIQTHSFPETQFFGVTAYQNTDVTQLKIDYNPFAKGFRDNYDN
Test details: PBM E-score of 8-mer (E-score (dimensionless, -0.5 to 0.5)); Tbr is Tbrain of the sea star Patiria miniata (Pm) or the sea urchin Strongylocentrotus purpuratus (Sp); higher = stronger binding preference
Condition info: the construct has about 5 more residues each side
Over roughly 33,000 sequences, “E-score (dimensionless, -0.5 to 0.5)” has its median near -0.046; the highest 2% begin near 0.36. The entries come from a sample that favours the highest values as a whole.
Response field class: string, computed from recorded PBM E-score of 8-mer by ranges bottom end (below 0.05), midrange (0.05 to below 0.2), top end (0.2 or more)

// query The entry to classify is `AACTGTGG` ; which class holds it?
// result midrange

// query Category lookup for the sequence `CCTCGTAC`
// result bottom end

// query Which class does `AGCTAACG` fall in?
// result top end

// query Sort into band: `CCGCCTCG`
// result bottom end

// query Which class is correct for the following sequence? `CGCTAACG`
// result top end

// query Which PBM E-score of 8-mer category applies to `AACTCTGC` here?
// result midrange

// query Exam item: assign `AACTGTGC` to the correct category.
// result bottom end

// query Field: class (PBM E-score of 8-mer) — entry: `ATGATGGA`
// result bottom end

// query Which bin should I file `AACAATTA` under?
// result midrange

// query Please let me know in which category the item `ACCTGCCT` belongs.
// result bottom end

// query Determine which band this sequence sits in: `ACTTTCAA`
// result midrange

// query Sort into band: `CTCACCGA`
// result midrange

// query Input `ATGTTGGA` ; output its category
// result bottom end

// query // return the class label for `CGCTAACC`
// result midrange

// query Record `ATGTTAAC` — which class?
// result midrange

// query Determine which band this sequence sits in: `TGCTAACA`
// result top end

// query # classify by PBM E-score of 8-mer band: `CTGTTGGA`
// result midrange

// query Form field 'band' for `GATGACAA`
// result top end

// query Place this sequence in its band: `AACTGTGA`
// result top end

// query Determine which band this sequence sits in: `AATGACAG`
// result bottom end

// query Which class holds `AGAATCGC` ?
// result midrange

// query Just checking, what class would you give `ACGTTAAC` here?
// result top end

// query For this sequence, which bin applies? `GTGTTATA`
// result top end

// query Which class does `ACACCTTA` fall in?
// result top end

// query Band for the recorded PBM E-score of 8-mer of `CACCGCCG` ?
// result midrange

// query Class for `ACGTATGC` ?
// result bottom end
